The reader will find reported EC50 (nM) direct cellular killing, HL60 values listed item by item below.
Molecular target: T1, CLL1 on CLL1-expressing cells (U937, HL60) (human, UniProt Q5QGZ9 1-265)
T1 sequence (looked up): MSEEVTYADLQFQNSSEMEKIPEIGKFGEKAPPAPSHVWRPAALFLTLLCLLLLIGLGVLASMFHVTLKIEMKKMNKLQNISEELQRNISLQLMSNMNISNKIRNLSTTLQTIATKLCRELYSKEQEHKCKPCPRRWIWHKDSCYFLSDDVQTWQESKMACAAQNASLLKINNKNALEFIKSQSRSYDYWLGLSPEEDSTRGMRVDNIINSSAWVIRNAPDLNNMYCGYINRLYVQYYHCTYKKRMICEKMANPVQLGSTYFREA
Experiment: cell-based or functional assay
Field: numeric (nM). Do not append units.

Query: What value of EC50 (nM) direct cellular killing, HL60 has been reported for the following binder? ADC3-11 (antibody, human IgG1, kappa, V domains shown, conjugator-linker-payload on cysteine thiols after TCEP reduction; positions not given) VH: EVQLVQSGAEVKKPGASVKVSCKASGYSFTDYYMHWVRQAPGQGLEWIGRINPYAGAAFYSQNFKDRVTLTVDTSTSTAYLELSSLRSEDTAVYYCAIERGADLEGYAMDYWGQGTLVTVSS VL: DIQMTQSPSSLSASVGDRVTITCRASQSVSTSSYNYMHWYQQKPGKPPKLLIKYASNLESGVPSRFSGSGSGTDFTLTISSLQPEDFATYYCQHSWEIPLTFGQGTKVEIKR
Result: 4.6

Query: Which EC50 (nM) direct cellular killing, HL60 reading was recorded for the binder ADC3-A (antibody, human IgG1, kappa, V domains shown, conjugator-linker-payload on cysteine thiols after TCEP reduction; positions not given) VH: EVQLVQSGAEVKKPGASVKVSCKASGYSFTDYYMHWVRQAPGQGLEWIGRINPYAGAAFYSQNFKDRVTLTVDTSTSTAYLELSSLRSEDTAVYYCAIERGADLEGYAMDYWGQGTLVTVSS VL: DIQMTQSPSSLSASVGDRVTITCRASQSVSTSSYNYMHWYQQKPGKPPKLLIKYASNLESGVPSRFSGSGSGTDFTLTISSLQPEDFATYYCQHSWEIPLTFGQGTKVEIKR ?
Result: 4.8

Query: Tell me the measured EC50 (nM) direct cellular killing, HL60 of ADC3-12 (antibody, human IgG1, kappa, V domains shown, conjugator-linker-payload on cysteine thiols after TCEP reduction; positions not given) VH: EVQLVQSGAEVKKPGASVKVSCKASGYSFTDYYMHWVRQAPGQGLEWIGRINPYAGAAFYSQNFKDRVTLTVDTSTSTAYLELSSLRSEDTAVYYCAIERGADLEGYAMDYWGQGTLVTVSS VL: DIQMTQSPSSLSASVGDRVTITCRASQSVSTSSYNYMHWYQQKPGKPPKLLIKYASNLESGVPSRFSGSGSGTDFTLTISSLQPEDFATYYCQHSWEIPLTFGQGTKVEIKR , please.
Result: 8

The record that follows has no EC50 (nM) direct cellular killing, HL60 shown yet.
Query: // query EC50 (nM) direct cellular killing, HL60 value for entry ADC3-10 (antibody, human IgG1, kappa, V domains shown, conjugator-linker-payload on cysteine thiols after TCEP reduction; positions not given) VH: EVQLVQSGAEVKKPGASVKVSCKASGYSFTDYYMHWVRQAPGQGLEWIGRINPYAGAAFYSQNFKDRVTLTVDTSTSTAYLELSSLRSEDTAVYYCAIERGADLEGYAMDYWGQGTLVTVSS VL: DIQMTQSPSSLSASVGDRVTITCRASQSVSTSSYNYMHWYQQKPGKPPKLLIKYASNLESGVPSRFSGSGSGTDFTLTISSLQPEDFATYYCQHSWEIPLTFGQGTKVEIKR
Result: 1.2
